Data provenance: patent USRE38332E1

# Test system: ChAT activity in spinal cord cultures
# PROTOCOL_DETAILS: Effect of indolocarbazole esters on ChAT activity in dissociated spinal cord cultures
# Format: cell-based, rat
# CONDITIONS: 500 nM
ENDPOINT: Spinal Cord ChAT Activity (% of Control) 500 nM

Would you please look over these solved cases?
- MOLECULE: "COC1(COC(=O)CN)CC2OC1(C)n1c3ccccc3c3c4c(c5c6ccccc6n2c5c31)C(=O)NC4.Cl (centres unmarked) [Example 2, (I-5)-Glycinate Hydrochloride]"
  TEST_RESULT: "157 % of Control"
- MOLECULE: "COC1(COC(=O)c2cccnc2)CC2OC1(C)n1c3ccccc3c3c4c(c5c6ccccc6n2c5c31)C(=O)NC4.Cl (centres unmarked)"
  TEST_RESULT: "137 % of Control"
- MOLECULE: "COC1(COC(=O)c2ccc[n+](C)c2)CC2OC1(C)n1c3ccccc3c3c4c(c5c6ccccc6n2c5c31)C(=O)NC4.[I-] (centres unmarked) [Example 6, (I-5)-Pyridine-3-carboxylate Methiodide]"
  TEST_RESULT: "149 % of Control"

Then there is this molecule:
Ask | Item COC1(COC(=O)C(N)CCC(=O)O)CC2OC1(C)n1c3ccccc3c3c4c(c5c6ccccc6n2c5c31)C(=O)NC4.Cl (centres unmarked) [Example 13, (I-5)-Glutamate Hydrochloride] : provide Spinal Cord ChAT Activity (% of Control) 500 nM
Reply | 168 % of Control

----------
# PROTOCOL_DETAILS: Solubility of the esters at 1 mg/ml in water and buffer solutions
# CONDITIONS: 10 mM acetate buffer pH 4
ENDPOINT: solubility in acetate buffer

Past entries and their recorded results:
- COMPOUND: "COC1(COC(=O)CCNC(=O)C(N)CCCCN)CC2OC1(C)n1c3ccccc3c3c4c(c5c6ccccc6n2c5c31)C(=O)NC4.Cl.Cl (stereo not drawn) [Example 14, (I-5)-Lysyl-β-Alaninate Dihydrochloride]"
  solubility in acetate buffer: "completely soluble"
- COMPOUND: "COC1(COC(=O)C(N)CCCCN)CC2OC1(C)n1c3ccccc3c3c4c(c5c6ccccc6n2c5c31)C(=O)NC4.Cl.Cl (centres unmarked) [Example 1, (I-5)-Lysinate Dihydrochloride]"
  solubility in acetate buffer: "completely soluble"
- COMPOUND: "COC1(COC(=O)C(C)N)CC2OC1(C)n1c3ccccc3c3c4c(c5c6ccccc6n2c5c31)C(=O)NC4.Cl (centres unmarked) [Example 3, (I-5)-Alaninate Hydrochloride]"
  solubility in acetate buffer: "completely soluble"
- COMPOUND: "COC1(COC(=O)CC(C)N(C)C)CC2OC1(C)n1c3ccccc3c3c4c(c5c6ccccc6n2c5c31)C(=O)NC4.Cl (centres unmarked) [Example 8]"
  solubility in acetate buffer: "completely soluble"
- COMPOUND: "COC1(COC(=O)C(C)(C)N)CC2OC1(C)n1c3ccccc3c3c4c(c5c6ccccc6n2c5c31)C(=O)NC4.Cl (stereo not drawn) [Example 12, (I-5)-α-Aminoisobutyrate Hydrochloride]"
  solubility in acetate buffer: "completely soluble"

Ask | Supply reported solubility in acetate buffer belonging to this compound: COC1(COC(=O)C(N)Cc2cnc[nH]2)CC2OC1(C)n1c3ccccc3c3c4c(c5c6ccccc6n2c5c31)C(=O)NC4.Cl.Cl (centres unmarked) [Example 9, (I-5) Histidinate Dihydrochloride]
Reply | completely soluble

Ask | Answer with the recorded solubility in acetate buffer for the compound listed here: COC1(COC(=O)c2cccnc2)CC2OC1(C)n1c3ccccc3c3c4c(c5c6ccccc6n2c5c31)C(=O)NC4.Cl (centres unmarked) [Example 5]
Reply | not completely soluble

Ask | # return recorded solubility in acetate buffer for entry COC1(COC(=O)CCC(=O)O)CC2OC1(C)n1c3ccccc3c3c4c(c5c6ccccc6n2c5c31)C(=O)NC4 (centres unmarked) [Example 4, (I-5)-Hydrogen Succinate]
Reply | not completely soluble

Ask | Annotate the compound COC1(COC(=O)CCN)CC2OC1(C)n1c3ccccc3c3c4c(c5c6ccccc6n2c5c31)C(=O)NC4.Cl (stereo not drawn) [Example 11, (I-5)-β-Alaninate Hydrochloride] with its measured solubility in acetate buffer.
Reply | completely soluble

Ask | Find the measured solubility in acetate buffer of COC1(COC(=O)c2ccc[n+](C)c2)CC2OC1(C)n1c3ccccc3c3c4c(c5c6ccccc6n2c5c31)C(=O)NC4.[I-] (centres unmarked) [Example 6, (I-5)-Pyridine-3-carboxylate Methiodide] and report it.
Reply | not completely soluble

Ask | Give solubility in acetate buffer for COC1(COC(=O)CN(C)C)CC2OC1(C)n1c3ccccc3c3c4c(c5c6ccccc6n2c5c31)C(=O)NC4.Cl (centres unmarked) [Example 7]
Reply | completely soluble

----------
Examples of compounds with documented Spinal Cord ChAT Activity (% of Control) 500 nM follow.
# Test system: ChAT activity in spinal cord cultures
# PROTOCOL_DETAILS: Effect of indolocarbazole esters on ChAT activity in dissociated spinal cord cultures
# Format: cell-based, rat
# CONDITIONS: 500 nM

- COMPOUND: "COC1(COC(=O)C(N)CCCCN)CC2OC1(C)n1c3ccccc3c3c4c(c5c6ccccc6n2c5c31)C(=O)NC4.Cl.Cl (stereo not drawn) [Example 1, (I-5)-Lysinate Dihydrochloride]"
  TEST_RESULT: "150 % of Control"

# evaluate next
Ask | Output reported Spinal Cord ChAT Activity (% of Control) 500 nM of the compound COC1(COC(=O)C(C)(C)N)CC2OC1(C)n1c3ccccc3c3c4c(c5c6ccccc6n2c5c31)C(=O)NC4.Cl (stereo not drawn) [Example 12, (I-5)-α-Aminoisobutyrate Hydrochloride] on ChAT activity in spinal cord cultures.
Reply | 155 % of Control

----------
# PROTOCOL_DETAILS: Solubility of the esters at 1 mg/ml in water and buffer solutions
# CONDITIONS: 10 mM Tris buffer pH 9
ENDPOINT: solubility in Tris buffer

- COMPOUND: "COC1(COC(=O)C(C)N)CC2OC1(C)n1c3ccccc3c3c4c(c5c6ccccc6n2c5c31)C(=O)NC4.Cl (centres unmarked) [Example 3, (I-5)-Alaninate Hydrochloride]"
  solubility in Tris buffer: "not completely soluble"
- COMPOUND: "COC1(COC(=O)c2cccnc2)CC2OC1(C)n1c3ccccc3c3c4c(c5c6ccccc6n2c5c31)C(=O)NC4.Cl (centres unmarked)"
  solubility in Tris buffer: "not completely soluble"
- COMPOUND: "COC1(COC(=O)CN(C)C)CC2OC1(C)n1c3ccccc3c3c4c(c5c6ccccc6n2c5c31)C(=O)NC4.Cl (centres unmarked)"
  solubility in Tris buffer: "not completely soluble"
- COMPOUND: "COC1(COC(=O)CCNC(=O)C(N)CCCCN)CC2OC1(C)n1c3ccccc3c3c4c(c5c6ccccc6n2c5c31)C(=O)NC4.Cl.Cl (stereo not drawn) [Example 14, (I-5)-Lysyl-β-Alaninate Dihydrochloride]"
  solubility in Tris buffer: "completely soluble"
- COMPOUND: "COC1(COC(=O)CCC(=O)O)CC2OC1(C)n1c3ccccc3c3c4c(c5c6ccccc6n2c5c31)C(=O)NC4 (centres unmarked) [Example 4, (I-5)-Hydrogen Succinate]"
  solubility in Tris buffer: "not completely soluble"

Ask | Kindly indicate its recorded solubility in Tris buffer. Item: COC1(COC(=O)C(N)CCCCN)CC2OC1(C)n1c3ccccc3c3c4c(c5c6ccccc6n2c5c31)C(=O)NC4.Cl.Cl (centres unmarked) [Example 1, (I-5)-Lysinate Dihydrochloride]
Reply | completely soluble

Ask | Give solubility in Tris buffer for COC1(COC(=O)CC(C)N(C)C)CC2OC1(C)n1c3ccccc3c3c4c(c5c6ccccc6n2c5c31)C(=O)NC4.Cl (centres unmarked)
Reply | not completely soluble

Ask | Answer with the recorded solubility in Tris buffer for the compound listed here: COC1(COC(=O)c2ccc[n+](C)c2)CC2OC1(C)n1c3ccccc3c3c4c(c5c6ccccc6n2c5c31)C(=O)NC4.[I-] (centres unmarked) [Example 6, (I-5)-Pyridine-3-carboxylate Methiodide]
Reply | not completely soluble

Ask | Supply measured solubility in Tris buffer of COC1(COC(=O)C(N)Cc2cnc[nH]2)CC2OC1(C)n1c3ccccc3c3c4c(c5c6ccccc6n2c5c31)C(=O)NC4.Cl.Cl (centres unmarked) [Example 9, (I-5) Histidinate Dihydrochloride] in your reply.
Reply | not completely soluble

Ask | Return value of solubility in Tris buffer for input COC1(COC(=O)CCN)CC2OC1(C)n1c3ccccc3c3c4c(c5c6ccccc6n2c5c31)C(=O)NC4.Cl (stereo not drawn) [Example 11, (I-5)-β-Alaninate Hydrochloride] , no commentary.
Reply | not completely soluble

Ask | Report solubility in Tris buffer, nothing else, for this compound: COC1(COC(=O)C(C)(C)N)CC2OC1(C)n1c3ccccc3c3c4c(c5c6ccccc6n2c5c31)C(=O)NC4.Cl (stereo not drawn) [Example 12, (I-5)-α-Aminoisobutyrate Hydrochloride]
Reply | not completely soluble

----------
# PROTOCOL_DETAILS: Solubility of the esters at 1 mg/ml in water and buffer solutions
# CONDITIONS: water (Solution 1)
ENDPOINT: solubility in water

# example entries with known answers
- COMPOUND: "COC1(COC(=O)CCNC(=O)C(N)CCCCN)CC2OC1(C)n1c3ccccc3c3c4c(c5c6ccccc6n2c5c31)C(=O)NC4.Cl.Cl (stereo not drawn) [Example 14, (I-5)-Lysyl-β-Alaninate Dihydrochloride]"
  solubility in water: "completely soluble"
- COMPOUND: "COC1(COC(=O)c2ccc[n+](C)c2)CC2OC1(C)n1c3ccccc3c3c4c(c5c6ccccc6n2c5c31)C(=O)NC4.[I-] (centres unmarked) [Example 6, (I-5)-Pyridine-3-carboxylate Methiodide]"
  solubility in water: "not completely soluble"
- COMPOUND: "COC1(COC(=O)C(N)CCCCN)CC2OC1(C)n1c3ccccc3c3c4c(c5c6ccccc6n2c5c31)C(=O)NC4.Cl.Cl (centres unmarked) [Example 1, (I-5)-Lysinate Dihydrochloride]"
  solubility in water: "completely soluble"
- COMPOUND: "COC1(COC(=O)C(C)N)CC2OC1(C)n1c3ccccc3c3c4c(c5c6ccccc6n2c5c31)C(=O)NC4.Cl (centres unmarked) [Example 3, (I-5)-Alaninate Hydrochloride]"
  solubility in water: "completely soluble"

Ask | Give the reported value of solubility in water for this record: COC1(COC(=O)C(C)(C)N)CC2OC1(C)n1c3ccccc3c3c4c(c5c6ccccc6n2c5c31)C(=O)NC4.Cl (stereo not drawn) [Example 12, (I-5)-α-Aminoisobutyrate Hydrochloride]
Reply | completely soluble

Ask | Determine from records and report solubility in water for COC1(COC(=O)CN(C)C)CC2OC1(C)n1c3ccccc3c3c4c(c5c6ccccc6n2c5c31)C(=O)NC4.Cl (centres unmarked)
Reply | completely soluble

Ask | Identify the reported solubility in water for the following entry. COC1(COC(=O)C(N)Cc2cnc[nH]2)CC2OC1(C)n1c3ccccc3c3c4c(c5c6ccccc6n2c5c31)C(=O)NC4.Cl.Cl (centres unmarked) [Example 9, (I-5) Histidinate Dihydrochloride]
Reply | completely soluble

Ask | Given the compound COC1(COC(=O)CCN)CC2OC1(C)n1c3ccccc3c3c4c(c5c6ccccc6n2c5c31)C(=O)NC4.Cl (stereo not drawn) [Example 11, (I-5)-β-Alaninate Hydrochloride] , write its reported solubility in water.
Reply | completely soluble

Ask | Look up and report measured solubility in water for this entry: COC1(COC(=O)CC(C)N(C)C)CC2OC1(C)n1c3ccccc3c3c4c(c5c6ccccc6n2c5c31)C(=O)NC4.Cl (centres unmarked)
Reply | completely soluble

Ask | Answer with the recorded solubility in water for the compound listed here: COC1(COC(=O)c2cccnc2)CC2OC1(C)n1c3ccccc3c3c4c(c5c6ccccc6n2c5c31)C(=O)NC4.Cl (centres unmarked)
Reply | not completely soluble

Ask | Please list solubility in water recorded for the compound COC1(COC(=O)CCC(=O)O)CC2OC1(C)n1c3ccccc3c3c4c(c5c6ccccc6n2c5c31)C(=O)NC4 (centres unmarked) [Example 4, (I-5)-Hydrogen Succinate]
Reply | not completely soluble
